src = the DeepSol protein solubility set

Test: soluble on expression in E. coli; label from the status in PepcDB or PDB records
assay readout: soluble on expression in E. coli

INSERT INTO results (seq_text, test_value) VALUES
  ('MKNTEIRKNIFPVGFYDDIHPDFSVNFQMNRCYTMTNDDVMLKEMREISPSIHNYEEFIEKFLELYNKALNEGHKLRAAYYLRTAEFYMTADHPQKQNYRKQFISLMQEYFNISDEQPYKVPYENGFLPAYRFTSEAPKGTIVMFGGFDSYVEEMFKMALFLKEAGYDVVFFDGPGQGSALEDYKIPMTHEWEKPVKSILDYFELDDVTLLGISLGGYLTVRAAAFEKRVHRVIADDILSNFYEVVLNTLPSQLKEKVNSLMSDGNEQEVNILFKDLMKKSLMVEWAINQGMHITGSKTPYEFLNKILLYNTSKISEKLEQDVLLMAAQEDHYIPLNQFFDQSKSLINVRSLTTRMFTRKETAQNHCQSGNLGLAFEVIANWIEQIQK', 'soluble'),
  ('MGHHHHHHSHMVETVSTKNTKNWHAPVVPAAWEAEAGESLEPWRWRLQWAGIASLHSSLGDRARLRLKKKKKKRKGHFPIQKSRKYVPFLKGICSSTPVGISRQVGQETEKRNKTQRQSIEKERGAQGTGALSLRGPAGALVSEFPQYLLIIIFTILARGV', 'not soluble'),
  ('MAVEEFNQNLNEIMKFKECNITVDTCVVIDGRITELISDGTIEKCTIIVPEAVISELEAQANKGREIGYFGIEELKKLVKVAKENEMVLEYYGERPSTGEVSLAKAGEIDAMIRKVAKDTNSILFTSDRIQYNLAIAQNINAHFLKVHEEKVDLKLV', 'not soluble'),
  ('MSLKDKFGREIRSLRISITNKCNLQCFYCHREGHDSNNDRYMTPEEIGIIAKTSTKFGVKKIKISGGEPLLRKDVCEIIENIKDERIKDISLTTNGILLENLAEKLKDAGLNRVNVSLDTLNPELYKKITKFGDVERVINGIKKAIDVSLTPLKVNFLAMSINIKDLPDIMEFCRDIGAILQIIEFIPLKEELKGYYYNISPIENEIKEKADKVITRNFMQNRKKYIVDGLEIEFVRPMDNSEFCMHCTRIRLTYDGYLKPCLLRDDNLVDVLTPLRKGENLEPYFIECINRREPYFKIKEGHHHHHH', 'soluble'),
  ('LVPRGSDSSRRQYQEKYKQVEQYMSFHKLPADFRQKIHDYYEHRYQGKMFDEDSILGELNGPLREEIVNFNNRKLVASMPLFANADPNFVTAMLTKLKFEVFQPGDYIIREGTIGKKMYFIQHGVVSVLTKGNKEMKLSDGSYFGEISLLTRGRRTASVRADTYSRLYSLSVDNFNEVLEEYPMMRRAFETVAIDRLDRIGKKN', 'soluble'),
  ('MDRKVAREFRHKVDFLIENDAEKDYLYDVLRMYHQTMDVAVLVGDLKLVINEPSRLPLFDAIRPLIPLKHQVEYDQLTPRRSRKLKEVRLDRLHPEGLGLSVRGGLEFGCGLFISHLIKGGQADSVGLQVGDEIVRINGYSISSCTHEEVINLIRTEKTVSIKVRHIGLIPVKSSPDEPLTWQYVDQFVSES', 'soluble');

Read the next record carefully.
# input sequence: MNPNFLDFEQPIADLQAKIEELRLVGNDNSLNIGDEISRLQDKSKTLTESIFGNLTSWQIARMARHPRRPYTLDYIENIFTEFDELHGDRHFSDDAAIVGGIARLDNQPVMIIGHQKGREVREKVRRNFGMPRPEGYRKACRLMEMAERFKMPILTFIDTPGAYPGIDAEERNQSEAIAWNLRVMARLKTPIIATVIGEGGSGGALAIGVCDQLNMLQYSTYAVISPEGCASILWKTAEKAPDAAEAMGITADRLKGLGIVDKVIAEPLGGAHRDPVAAAALIREELSSQLAMLKAFDNDALLARRYDRLMSYGL ; wanted: its soluble on expression in E. coli
not soluble
